All values here come from ChEMBL document CHEMBL5360530.

tested on: A-431; experiment: Anticancer activity against human A-431 cells assessed as cell growth inhibition at 100 uM by MTT assay relative to control; type: functional
The following molecules are listed with their measured inhibition at 100 µM values.
propertyName: inhibition at 100 µM (%)

INSERT INTO measurements (linenotation, resultvalue) VALUES
  ('CCCCCCCCCCCCCCCCC/C=C\CCCCCCCC(=O)N1CC[C@H](OP(=O)([O-])OCC[N+](C)(C)C)C1', 0.3),
  ('CCCCCCCCCCCCCCCC(=O)N1CCC[C@@H]1OP(=O)([O-])OCC[N+](C)(C)C', 0.3),
  ('CCCCCCCCCCCCCCCC(=O)N1CC[C@H](COP(=O)([O-])OCC[N+](C)(C)C)C1', 74.2),
  ('CCCCCC/C=C\CCCCCCCC(=O)N1CC[C@H](OP(=O)([O-])OCC[N+](C)(C)C)C1', 0.3),
  ('CCCCCCCCCCCCCCCCCC/C=C\CCCCCCCC(=O)N1CCC[C@@H]1OP(=O)([O-])OCC[N+](C)(C)C', 0.3),
  ('CCCCCCCCCCCCCCCC(=O)N1CCC[C@H]1OP(=O)([O-])OCC[N+](C)(C)C', 0.3),
  ('CCCCCCCCCCCCCCCCOP(=O)([O-])OCC[N+](C)(C)C', 35.4),
  ('CCCCCCCC/C=C\CC(=O)N1CCC[C@H]1COP(=O)([O-])OCC[N+](C)(C)C', 0.3),
  ('CCCCCCCCCCCCCCCC(=O)N1CC[C@@H](OP(=O)([O-])OCC[N+](C)(C)C)C1', 0.3);

---

The following molecules are listed with their measured IC50 values.
test system: HCT-116; experiment: Anticancer activity against human HCT-116 cells assessed as cell growth inhibition measured after 72 hrs by CCK-8 assay; assay type: functional, cell-based; conditions: HCT-116, 72 h
propertyName: IC50 (µM)

INSERT INTO results (molecule, unittext, resultvalue) VALUES
  ('OC(CN1CCCCC1)Cn1c2ccc(Cl)cc2c2cc(Cl)ccc21 (configuration not stated)', 'µM', 6),
  ('CCCCNCC(O)Cn1c2ccc(Cl)cc2c2cc(Cl)ccc21 (configuration not stated)', 'µM', 6.5);

---

system: A549; assay: Anticancer activity against human A549 cells assessed as cell growth inhibition measured after 72 hrs by CCK-8 assay; type: functional, cell-based; conditions: A549, 72 h
propertyName: IC50 (µM)

INSERT INTO assay_data (compound, resultvalue) VALUES
  ('OC(CN1CCCCC1)Cn1c2ccc(Cl)cc2c2cc(Cl)ccc21 (configuration not stated)', 6),
  ('CCCCNCC(O)Cn1c2ccc(Cl)cc2c2cc(Cl)ccc21 (configuration not stated)', 6);

---

assay: Cytotoxicity against human Adipose tissue derived mesenchymal stem cell assessed as cell growth inhibition measured after 48 hrs by MTT assay; assay type: toxicity, cell-based; conditions: adipose tissue derived mesenchymal stem cells
propertyName: IC50 at 48 h (nM)

INSERT INTO assay_data (linenotation, resultvalue) VALUES
  ('O=C1CCC(=O)N1c1ccc(O)cc1', 1320);

---

The following compounds are listed with their measured pIC50 values.
system: HCT-116; experiment: Anticancer activity against human HCT-116 cell assessed as cell growth inhibition; type: functional, cell-based
pIC50: −log10 of the molar value.
propertyName: pIC50

INSERT INTO measurements (linenotation, resultvalue) VALUES
  ('O=C(c1c[nH]c2ccccc12)[C@@H]1[C@@H](c2cccc(Br)c2)[C@@H]2CSCN2[C@@]12C(=O)Nc1ccccc12', 5.05),
  ('O=C(c1c[nH]c2ccccc12)[C@@H]1[C@@H](c2cccc(C(F)(F)F)c2)[C@@H]2CSCN2[C@@]12C(=O)Nc1ccccc12', 5.15),
  ('O=C(c1c[nH]c2ccccc12)[C@@H]1[C@@H](c2cccc(F)c2)[C@@H]2CSCN2[C@@]12C(=O)Nc1ccccc12', 5.05),
  ('Cc1ccc([C@@H]2[C@@H](C(=O)c3c[nH]c4ccccc34)[C@]3(C(=O)Nc4ccccc43)N3CSC[C@@H]23)cc1', 5.05);

---

test system: PC-3; experiment: Potency index, ratio of cisplatin IC50 to test compound IC50 for anticancer activity against human PC-3 cells; assay type: functional
The following compounds are listed with their measured Ratio IC50 values.
propertyName: Ratio IC50

INSERT INTO assay_data (compound, resultvalue) VALUES
  ('O=C(c1c[nH]c2ccccc12)[C@@H]1[C@@H](c2ccc(Cl)cc2Cl)[C@@H]2CSCN2[C@@]12C(=O)Nc1ccccc12', '>4.3'),
  ('O=C(/C=C/c1ccc(Cl)cc1)[C@H]1[C@H](c2ccc(Cl)cc2)[C@H]2CSCN2[C@]12C(=O)Nc1ccccc12', 1.8),
  ('O=C(/C=C/c1cccc([N+](=O)[O-])c1)[C@H]1[C@H](c2cccc([N+](=O)[O-])c2)[C@H]2CSCN2C12C(=O)Nc1ccccc12 (stereo partly drawn)', 1.8);

---

tested on: A-431; assay: Anticancer activity against human A-431 cells assessed as cell growth inhibition at 100 uM by MTT assay relative to control; format: functional
The following compounds are listed with their measured inhibition at 100 µM values.
propertyName: inhibition at 100 µM (%)

INSERT INTO results (linenotation, resultvalue) VALUES
  ('CCCCCCCCCCCCCCCCCC/C=C\CCCCCCCC(=O)N1CCC[C@H]1OP(=O)([O-])OCC[N+](C)(C)C', 0.3),
  ('CCCCCCCCCCCCCCCCC/C=C\CCCCCCCC(=O)N1CC[C@@H](OP(=O)([O-])OCC[N+](C)(C)C)C1', 0.3),
  ('CCCCCCCC/C=C\CC(=O)N1CC[C@@H](COP(=O)([O-])OCC[N+](C)(C)C)C1', 67.3),
  ('CCCCCCCC/C=C\CC(=O)N1CCC[C@@H]1COP(=O)([O-])OCC[N+](C)(C)C', 0.3);

---

test system: HT-29; assay: Anticancer activity against human HT-29 cells assessed as cell growth inhibition measured after 48 hrs by MTT assay; type: functional, cell-based; settings: HT-29, 48 h
pIC50: −log10 of the molar value.
Rule: pIC50 under 6 gives NO, otherwise YES.

INSERT INTO measurements (molecule, assignedclass) VALUES
  ('CC(=O)O[C@H]1C(=O)[C@@]2(C)[C@H]([C@H](OC(=O)c3ccccc3)[C@]3(O)C[C@H](OC(=O)[C@H](O)[C@@H](NC(=O)c4ccccc4)c4ccccc4)C(C)=C1C3(C)C)[C@]1(OC(C)=O)CO[C@@H]1C[C@@H]2O', 'NO'),
  ('O=C1CCC(=O)N1CC(=O)N1N=C(c2ccccc2)CC1c1ccc(Cl)c(Cl)c1 (configuration not stated)', 'YES'),
  ('O=C1CCC(=O)N1CC(=O)N1N=C(c2ccccc2)CC1c1ccccc1 (configuration not stated)', 'YES'),
  ('CCc1ccc(CCOc2ccc(CC3SC(=O)NC3=O)cc2)nc1 (configuration not stated)', 'NO'),
  ('O=C1CCC(=O)N1CC(=O)N1N=C(c2ccccc2)CC1c1ccc(F)cc1 (configuration not stated)', 'YES');
